Target: T1, human ICOS (human, UniProt Q9Y6W8 21-199)
T1 sequence: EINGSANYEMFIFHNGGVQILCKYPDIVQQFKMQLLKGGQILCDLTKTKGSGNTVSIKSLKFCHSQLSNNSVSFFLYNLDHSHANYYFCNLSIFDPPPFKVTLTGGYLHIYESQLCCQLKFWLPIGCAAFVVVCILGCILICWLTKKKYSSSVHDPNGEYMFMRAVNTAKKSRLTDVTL
Experiment: cell-based or functional assay
# Max (Counts/sec), Jurkat-NFAT reporter cell line per record follows
measure_name: Max (Counts/sec), Jurkat-NFAT reporter cell line

binder	value_observed
Molecule 35 (ICOS H1138_3) (antibody, human IgG1, kappa, L234A L235A, V domains shown, Human IgG format) VH: EVQLLESGGGLVQPGGSLRLSCAASGFDLSSYYYMSWVRQAPGKGLEWVSSIYADIYGGTTHYASWAKGRFTISKTSSTTLYLQMNSLRAEDTAVYFCAREDGSRYGGSGYYNLWGQGTLVTVSS VL: AIQMTQSPSSLSASVGDRVTITCRASQNIYSNLAWYQQKPGKPPKLLIYAASYLTSGVSSRFSGSGSGTDFTLTISSLQPEDFATYYCQQGHTTDNIDNAFGGGTKVEIKR	59500
Molecule 29 (ICOS H1143v2_1) (antibody, human IgG1, kappa, L234A L235A, V domains shown, Human IgG format) VH: EVQLLESGGGLVQPGGSLRLSCAASGFDFSSAYDMSWVRQAPGKGLEWVSVIYYGDGITYYADSVKGRFTISRDNSKNTLYLQMNSLRAEDTAVYFCARGAFLGSSYYLSLWGQGTLVTVSS VL: DIQMTQSPSSLSASVGDRVTITCRASENIYNWLAWYQQKPGKAPKLLIYDASKLASGVPSRFSGSGSGTDFTLTISSLQPEDFATYYCQQAYTYGNIDNAFGGGTKVEIKR	63800
Molecule 32 (ICOS 1138) (antibody, human IgG1, kappa, L234A L235A, V domains shown, Human IgG format; also called parental antibody of Molecules 33-35) VH: QSLEESGGDLVKPGASLTLTCTASGFDLSSYYYMSWVRQAPGKGLEWIASIYADIYGGTTHYASWAKGRFTISKTSSTTVTLQMTSLTAADTATYFCAREDGSRYGGSGYYNLWGPGTLVTVSS VL: ALVMTQTPSSVSAAVGGTVTINCQASQNIYSNLAWYQQKPGQPPKLLIYAASYLTSGVSSRFKGSGAGTQFTLTISGVESADAATYYCQQGHTTDNIDNAFGGGTEVVVKR	28500
